Molecular target: T1, cynomolgus monkey C2 (cynomolgus monkey, UniProt G8F3W0 21-752)
T1 sequence: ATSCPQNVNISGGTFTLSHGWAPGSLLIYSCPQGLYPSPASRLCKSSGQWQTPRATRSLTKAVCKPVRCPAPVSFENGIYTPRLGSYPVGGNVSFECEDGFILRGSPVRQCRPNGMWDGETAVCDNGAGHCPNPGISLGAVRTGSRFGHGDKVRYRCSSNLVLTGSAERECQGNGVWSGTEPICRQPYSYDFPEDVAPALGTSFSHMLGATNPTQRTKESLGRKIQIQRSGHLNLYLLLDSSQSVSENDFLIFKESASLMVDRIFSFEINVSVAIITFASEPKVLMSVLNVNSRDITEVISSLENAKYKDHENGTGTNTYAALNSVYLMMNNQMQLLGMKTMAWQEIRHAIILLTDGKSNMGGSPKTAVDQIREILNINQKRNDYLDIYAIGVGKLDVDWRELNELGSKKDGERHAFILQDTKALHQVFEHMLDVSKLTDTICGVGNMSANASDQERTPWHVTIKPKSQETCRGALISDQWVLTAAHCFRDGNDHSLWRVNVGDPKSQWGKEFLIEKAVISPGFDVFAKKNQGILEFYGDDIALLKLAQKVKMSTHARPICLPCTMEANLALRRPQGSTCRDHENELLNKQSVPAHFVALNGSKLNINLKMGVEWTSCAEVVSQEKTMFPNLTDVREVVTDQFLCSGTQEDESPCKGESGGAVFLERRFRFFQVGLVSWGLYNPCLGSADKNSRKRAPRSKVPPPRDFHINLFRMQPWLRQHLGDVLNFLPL
Experiment: cell-based or functional assay
endpoint.name: IC50, inhibition of cyno classical pathway (hemolysis assay)
Param answer (str): number followed by unit.

Worked examples follow.
Request: What value of IC50, inhibition of cyno classical pathway (hemolysis assay) has been recorded for this entry: RF16-214G (antibody, V domains shown) VH: EVQLLESGGGLVQPGGSLRLSCAASGFTFSWYQMMWVRQAPGKGLEWVSRIYPSGGGTAYADSVKGRFTISRDNSKNTLYLQMNSLRAEDTAVYYCARDAGYGDNWGQGTLVTVSS VL: SYELTQPPSVSVSPGQTASITCSGDKLGEKYASWYQQKPGQSPVLVIYQDRKRPSGIPERFSGSNSGNTATLTISGTQAMDEADYYCQAWDTRAVVFGGGTKLTVLG
Response: 396 nM

Request: What value of IC50, inhibition of cyno classical pathway (hemolysis assay) has been recorded for this entry: RF16-191G (antibody, V domains shown) VH: EVQLLESGGGLVQPGGSLRLSCAASGFTFSKYWMGWVRQAPGKGLEWVSSIYSSGGWTYYADSVKGRFTISRDNSKNTLYLQMNSLRAEDTAVYYCARRPRSFSGSYYRAFDIWGQGTMVTVSS VL: DIQMTQSPSSLSASVGDRVTITCRASQSITDYLNWYQQKPGKAPKLLIYAASSLQSGVPSRFSGSGSGTDFTLTISSLQPEDFATYYCQQSYSSSITFGQGTRLDLKR
Response: 213 nM

Request: What value of IC50, inhibition of cyno classical pathway (hemolysis assay) has been recorded for this entry: RF16-203 (antibody, V domains shown, Human antibody from a phage display library) VH: EVQLLESGGGLVQPGGSLRLSCAASGFTFSRYYMMWVRQAPGKGLEWVSSIGSSGGTTNYADSVKGRFTISRDNSKNTLYLQMNSLRAEDTATYYCAKGGMVLGVVNIWGQGTLVTVSS VL: QSALTQPPSVSVSPGQTATITCSGDKLGEKYVSWYQQKPGQSPVVVIFQDIKRPSGIPERFSGSNSGNTATLTISGTQAMDEADYYCQTWGTGGIQVFGGGTKLTVLR
Response: 361 nM

Field: next binder
Request: What value of IC50, inhibition of cyno classical pathway (hemolysis assay) has been recorded for this entry: RF16-242G (antibody, V domains shown, Germlined version of RF16-242) VH: EVQLVQSGAEVKKPGESLKISCKGSGYSFTSYWIGWVRQMPGKGLEWMGIIYPGDSDTRYSPSFQGQVTISADKSISTAYLQWSSLKASDTAMYYCARRGHYGDYFDYWGQGTLVTVSS VL: SYELTQPPSVSVSPGQTARITCSGDALPKKYAYWYQQKSGQAPVLVIYEDRRRPSGIPERFSGSSSGTMATLTISGAQVEDEADYYCYSRDRAGNQRVFGGGTQLTVLG
Response: 302 nM
